Taken from patent US20170129919A1.

Test: Solubility in water
Type: physicochemical
Details: Table 5
Experimental: Concretely, each compound was added to distilled water (manufactured by Otsuka Pharmaceutical Co., Ltd.) at an ambient temperature (25° C.) so as to have a final concentration of 5 mM, and the mixture was stirred under ultrasonication for 30 minutes to dissolve. […]
Readout type: solubility in water (in words)

Past entries and their recorded results:
Return reported solubility in water (in words). Input compound: CCC(C)C1NC(=O)C(Cc2ccc(O)cc2)NC1=O (centres unmarked) [Cyclo(Ile-Tyr), cycloisoleucyltyrosine]
high solubility in water

Kindly indicate its recorded solubility in water (in words). Item: O=C1N[C@@H](Cc2c[nH]cn2)C(=O)N[C@H]1Cc1ccc(O)cc1 [Cyclo(His-Tyr), cyclohistidyltyrosine]
high solubility in water

Note down solubility in water (in words) recorded for O=C1N[C@@H](Cc2ccc(O)cc2)C(=O)N2CCC[C@@H]12 [Cyclo(Pro-Tyr), cycloprolyltyrosine]
high solubility in water

Note down solubility in water (in words) recorded for NCCCC[C@@H]1NC(=O)[C@H](Cc2ccc(O)cc2)NC1=O [Cyclo(Lys-Tyr), cyclolysyltyrosine]
high solubility in water

Now consider a different compound.
For the compound NC(=O)CC[C@@H]1NC(=O)[C@H](Cc2ccc(O)cc2)NC1=O [Cyclo(Gln-Tyr), cycloglutaminyltyrosine] , report solubility in water (in words).
high solubility in water

----------
Assay: Solubility in water
Type: physicochemical
Details: Table 5; distilled water, 25° C., ultrasonication 30 minutes, visual examination; tested at 5, 1, 0.1, 0.01 mM; insoluble = not dissolved at 0.01 mM
Readout type: Solubility in Water (mM)

Indicate the recorded Solubility in Water value for this molecule: O=C(O)C[C@@H]1NC(=O)[C@H](Cc2ccc(O)cc2)NC1=O [Cyclo(Asp-Tyr), cycloaspartyltyrosine]
5

Provide Solubility in Water value for the following molecule: O=C(O)CC[C@@H]1NC(=O)[C@H](Cc2ccc(O)cc2)NC1=O [Cyclo(Glu-Tyr), cycloglutamyltyrosine]
5

----------
Experiment: Solubility in water
Format: physicochemical
Details: Table 5; distilled water, 25° C., ultrasonication 30 minutes, visual examination; tested at 5, 1, 0.1, 0.01 mM; insoluble = not dissolved at 0.01 mM
Readout type: solubility at 30 min (µM)
Number in µM, nothing else.

Report solubility at 30 min for O=C1CNC(=O)C(Cc2ccc(O)cc2)N1 (stereo not shown) [Cyclo(Tyr-Gly), cyclotyrosylglycine]
1000

----------
Target: xanthine oxidase (XO)
Test: In vitro xanthine oxidase (XO) inhibiting action
Assay type: biochemical
Settings: Table 1; PBS pH 7.5, xanthine substrate, absorbance at 295 nm after 30 minutes; mean±standard error; read-out: IC50 (Activity of Inhibiting XO of Tyr-Containing Cyclic Dipeptides)
Readout type: IC50 (µM)

Solved cases (5 shown):
Please list IC50 recorded for the compound O=C1CNC(=O)C(Cc2ccc(O)cc2)N1 (stereo not shown)
49

Give the measured IC50 for O=C1N[C@@H](Cc2ccc(O)cc2)C(=O)N[C@H]1Cc1ccccc1
22.2

Tell me IC50 reported for O=C(O)C[C@@H]1NC(=O)[C@H](Cc2ccc(O)cc2)NC1=O
172

Kindly indicate its recorded IC50. Item: CCC(C)C1NC(=O)C(Cc2ccc(O)cc2)NC1=O (stereo not shown)
86.7

Please supply the value of reported IC50 for the item CSCCC1NC(=O)C(Cc2ccc(O)cc2)NC1=O (stereo not shown)
56.4

a. O=C1N[C@@H](Cc2ccc(O)cc2)C(=O)N[C@H]1Cc1ccc(O)cc1
b. N=C(N)NCCCC1NC(=O)C(Cc2ccc(O)cc2)NC1=O (stereo not shown)
Returns: the argument ( a or b ) having the larger IC50. Let me know the label of the one you choose.
b
(b: 211 µM, a: 29.5 µM)

----------
Test: Solubility in water
Assay type: physicochemical
Details: Table 5; distilled water, 25° C., ultrasonication 30 minutes, visual examination; tested at 5, 1, 0.1, 0.01 mM; insoluble = not dissolved at 0.01 mM
Method: Concretely, each compound was added to distilled water (manufactured by Otsuka Pharmaceutical Co., Ltd.) at an ambient temperature (25° C.) so as to have a final concentration of 5 mM, and the mixture was stirred under ultrasonication for 30 minutes to dissolve. […]
Readout type: Solubility in Water (µM)

In the examples that follow, each entry is paired with its recorded Solubility in Water.
Report measured Solubility in Water; entry is C[C@@H](O)[C@@H]1NC(=O)[C@H](Cc2ccc(O)cc2)NC1=O
1000

Look up and report measured Solubility in Water for this entry: O=C1N[C@@H](Cc2ccc(O)cc2)C(=O)N2CCC[C@@H]12
1000

Give Solubility in Water for the following compound: CCC(C)C1NC(=O)C(Cc2ccc(O)cc2)NC1=O (stereo not drawn)
1000

Look up and report measured Solubility in Water for this entry: O=C1N[C@@H](Cc2c[nH]cn2)C(=O)N[C@H]1Cc1ccc(O)cc1
1000

Give me measured Solubility in Water, please, for this compound: CSCCC1NC(=O)C(Cc2ccc(O)cc2)NC1=O (stereo not drawn)
5000

Hello, please tell me recorded Solubility in Water for this one: NC(=O)CC[C@@H]1NC(=O)[C@H](Cc2ccc(O)cc2)NC1=O
1000

Give the value of Solubility in Water reported for the following: NCCCC[C@@H]1NC(=O)[C@H](Cc2ccc(O)cc2)NC1=O
5000

a. N=C(N)NCCCC1NC(=O)C(Cc2ccc(O)cc2)NC1=O (stereo not drawn)
b. NC(=O)C[C@@H]1NC(=O)[C@H](Cc2ccc(O)cc2)NC1=O
Short answer wanted: higher Solubility in Water, a or b ? Pick one and reply with its label.
a
(a: 5000 µM, b: 1000 µM)

----------
Target: xanthine oxidase (XO)
Experiment: In vitro xanthine oxidase (XO) inhibiting action
Type: biochemical
Conditions: Table 1; PBS pH 7.5, xanthine substrate, absorbance at 295 nm after 30 minutes; mean±standard error; read-out: IC50 (Activity of Inhibiting XO of Tyr-Containing Cyclic Dipeptides)
Readout type: IC50 (µM)

State, in one line, measured IC50 of O=C1NC(Cc2ccc(O)cc2)C(=O)NC1CO (stereo not shown) [Cyclo(Ser-Tyr), cycloseryltyrosine]
189

A. O=C1NC(Cc2ccc(O)cc2)C(=O)NC1CS (stereo not shown) [Cyclo(Tyr-Cys)]
B. NC(=O)C[C@@H]1NC(=O)[C@H](Cc2ccc(O)cc2)NC1=O [Cyclo(Asn-Tyr), cycloasparaginyltyrosine]
Could you tell me which of A and B has the lower IC50 reading? # reply format: chosen label
A
(A: 77.2 µM, B: 113 µM)

----------
Molecular target: xanthine oxidase (XO)
Experiment: In vitro xanthine oxidase (XO) inhibiting action
Format: biochemical
Conditions: Table 3; PBS pH 7.5, xanthine substrate, absorbance at 295 nm after 30 minutes; mean±standard error; read-out: IC50 (Activity of Inhibiting XO of Phe-Containing Cyclic Dipeptides)
Method: The in vitro xanthine oxidase (XO) inhibiting action was studied on 210 kinds of cyclic dipeptides, linear dipeptides Tyr-Gly and Gly-Tyr, and an amino acid Tyr. […] Thereafter, 20 μL of a 250 μM xanthine solution previously dissolved in the PBS was added thereto, and the absorbance after 30 minutes was measured using a spectrophotometer (Synegy HT, manufactured by Bio Tek). […]
pIC50: −log10 of the molar value.
Readout type: pIC50

Please review the following examples before continuing.
Tell us which pIC50 value is on record for O=C1NC(Cc2c[nH]c3ccccc23)C(=O)NC1Cc1ccccc1 (stereo not shown) [Cyclo(Trp-Phe), reference compound]
< 4.00

Output pIC50 of CC(C)CC1NC(=O)C(Cc2ccccc2)NC1=O (stereo not shown) [Cyclo(Leu-Phe), reference compound]
< 4.00

Give me measured pIC50, please, for this compound: CC(O)C1NC(=O)C(Cc2ccccc2)NC1=O (stereo not shown) [Cyclo(Thr-Phe), reference compound]
< 3.52

Give the measured pIC50 for O=C1NC(Cc2cnc[nH]2)C(=O)NC1Cc1ccccc1 (stereo not shown) [Cyclo(His-Phe), reference compound]
< 4.00

Provide pIC50 value for the following compound: O=C(O)CC1NC(=O)C(Cc2ccccc2)NC1=O (stereo not shown) [Cyclo(Asp-Phe), reference compound]
< 3.52

Continuing:
Please report the measured pIC50 for CC(C)C1NC(=O)C(Cc2ccccc2)NC1=O (stereo not shown) [Cyclo(Val-Phe), reference compound]
4.22

Output measured pIC50 for this item: O=C1NC(Cc2ccccc2)C(=O)NC1CO (stereo not shown) [Cyclo(Ser-Phe), reference compound]
< 3.52

Hello, please tell me recorded pIC50 for this one: NCCCCC1NC(=O)C(Cc2ccccc2)NC1=O (stereo not shown) [Cyclo(Lys-Phe), reference compound]
< 3.52

Please indicate pIC50 recorded for O=C1N[C@@H](Cc2ccc(O)cc2)C(=O)N[C@H]1Cc1ccccc1 [Cyclo(Phe-Tyr), cyclophenylalanyltyrosine]
4.65

Retrieve pIC50 measured for N=C(N)NCCCC1NC(=O)C(Cc2ccccc2)NC1=O (stereo not shown) [Cyclo(Arg-Phe), reference compound] and print it.
< 3.52

Tell me measured pIC50 for CCC(C)C1NC(=O)C(Cc2ccccc2)NC1=O (stereo not shown) [Cyclo(Ile-Phe), reference compound] please.
< 4.00

Determine from records and report pIC50 for O=C1CNC(=O)C(Cc2ccccc2)N1 (stereo not shown) [Cyclo(Phe-Gly), reference compound]
< 4.00

Provide one value: measured pIC50 of CC1NC(=O)C(Cc2ccccc2)NC1=O (stereo not shown) [Cyclo(Ala-Phe), reference compound]
< 4.00
